ASSAY_TARGET: PD-L1 (Homo sapiens)
Construct: determine if they can specifically dimerize the extracellular domains of PD-L1
Sequence (Q9NZQ7 19-238 limits assumed): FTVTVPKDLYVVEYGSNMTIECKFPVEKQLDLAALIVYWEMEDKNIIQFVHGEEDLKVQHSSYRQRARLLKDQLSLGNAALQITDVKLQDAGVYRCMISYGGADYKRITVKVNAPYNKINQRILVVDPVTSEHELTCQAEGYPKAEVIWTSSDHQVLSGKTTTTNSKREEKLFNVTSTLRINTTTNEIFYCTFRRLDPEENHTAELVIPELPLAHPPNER
Sequence (Q9NZQ7 19-238 limits assumed): as above
ASSAY_OVERVIEW: PD-L1/PD-L1 dimerization biochemical protein-protein interaction assay (ALPHA)
ASSAY_CONDITIONS: 0.5 nM His tagged PD-L1 and 0.5 nM FLAG tagged PD-L1; compound induced dimerization; read-out: AC50 PDL1 Dimer 1 nM
MEASUREMENT_LABEL: AC50 (nM)
API: value field is a number in nM; no unit string.

Query string: Find the recorded AC50 belonging to COc1nc(-c2cccc(-c3cccc(-c4nc5n(n4)CCNC5)c3Cl)c2Cl)ccc1CNC[C@@H]1CCC(=O)N1 [Compound 30] and report it.
Result string: 690

Query string: Find the recorded AC50 belonging to C[C@](CO)(NCc1cc(Cl)c(OCc2cccc(-c3cccc(-c4ccc5c(c4)CNCC5)c3Cl)c2Cl)nc1OCc1cc(C#N)cc(C#N)c1)C(=O)O [Compound 27] and report it.
Result string: 30.6

Query string: Find the recorded AC50 belonging to COc1nc(-c2cccc(-c3cccc(-c4nc5c(s4)CNCC5)c3Cl)c2Cl)ccc1CNC[C@@H]1CCC(=O)N1 [Compound 35] and report it.
Result string: 281

Query string: Find the recorded AC50 belonging to Cc1c(COc2cc(OCc3cncc(C#N)c3)c(CNC[C@@H](O)CC(=O)O)cc2Cl)cccc1-c1cccc(-c2ccc3c(c2)CNCC3NC(=O)NC2CC2)c1C (stereo partly shown) [Compound 13] and report it.
Result string: 26.9

Query string: Find the recorded AC50 belonging to Cc1c(COc2cc(OCc3cncc(C#N)c3)c(CN[C@@](C)(CO)C(=O)O)cc2Cl)cccc1-c1cccc(-c2ccc3c(c2)NCCNC3)c1C [Compound 4] and report it.
Result string: 86.5

Query string: Find the recorded AC50 belonging to Cc1c(COc2cc(OCc3cc(C#N)cc(C#N)c3)c(CN[C@@](C)(CO)C(=O)O)cc2Cl)cccc1-c1cccc(-c2ccc3c(c2)CNCC3)c1C [Compound 8] and report it.
Result string: 42.9

Query string: Find the recorded AC50 belonging to C[C@@](CO)(NCc1cc(Br)c(OCc2cccc(-c3cccc(-c4ccc5c(c4)CNCC5)c3Cl)c2Cl)nc1OCc1cncc(C#N)c1)C(=O)O [Compound 22] and report it.
Result string: 37.7

Query string: Find the recorded AC50 belonging to Cc1c(COc2cc(OCc3cncc(C#N)c3)c(CN[C@@](C)(CO)C(=O)O)cc2Cl)cccc1-c1cccc(-c2ccc3c(c2)C2CCC(C3)N2)c1C (stereo partly shown) [Compound 24] and report it.
Result string: 41.3

Query string: Find the recorded AC50 belonging to Cc1c(COc2cc(OCc3cncc(C#N)c3)c(CN[C@@](C)(CO)C(=O)O)cc2Cl)cccc1-c1cccc(-c2ccc3c(c2)CNCC3)c1C [Compound 5] and report it.
Result string: 57

Query string: Find the recorded AC50 belonging to Cc1c(COc2cc(OCc3cncc(C#N)c3)c(CNC[C@@H](O)CC(=O)O)cc2Cl)cccc1-c1cccc(-c2ccc3c(c2)CNCC3NC(=O)NCC#N)c1C (stereo partly shown) [Compound 17] and report it.
Result string: 31.6

Query string: Find the recorded AC50 belonging to Cc1c(COc2cc(OCc3cncc(C#N)c3)c(CN[C@@](C)(CO)C(=O)O)cc2Cl)cccc1-c1cccc(-c2ccc3c(c2)CNCC3NC(=O)NCC#N)c1C (stereo partly shown) [Compound 16] and report it.
Result string: 30.9

Query string: Find the recorded AC50 belonging to COc1nc(-c2cccc(-c3cccc(-c4cc5c(s4)CCNC5)c3Cl)c2Cl)ccc1CN1CC2(CCC(=O)N2)C1 [Compound 32] and report it.
Result string: 181

Query string: Find the recorded AC50 belonging to CNC(=O)NC1CNCc2cc(-c3cccc(-c4cccc(-c5ccc(CNC[C@@H]6CCC(=O)N6)c(OC)n5)c4Cl)c3Cl)ccc21 (stereo partly shown) [Compound 12] and report it.
Result string: 55.3

Query string: Find the recorded AC50 belonging to COc1nc(-c2cccc(-c3cccc(-c4cc5c(s4)CNCC5)c3Cl)c2Cl)ccc1CNC[C@@H]1CCC(=O)N1 [Compound 34] and report it.
Result string: 174

Query string: Find the recorded AC50 belonging to CNC(=O)N[C@@H]1CNCc2cc(-c3cccc(-c4cccc(COc5cc(OCc6cncc(C#N)c6)c(CN[C@@](C)(CO)C(=O)O)cc5Cl)c4C)c3C)ccc21 [Compound 15] and report it.
Result string: 7.47

Query string: Find the recorded AC50 belonging to Cc1c(COc2cc(OCc3cncc(C#N)c3)c(CN[C@@](C)(CO)C(=O)O)cc2Cl)cccc1-c1cccc(-c2ccc3c(c2)NC(=O)CNC3)c1C [Compound 10] and report it.
Result string: 249

Query string: Find the recorded AC50 belonging to CC(=O)NCC1Cc2ccc(-c3cccc(-c4cccc(COc5cc(OCc6cncc(C#N)c6)c(CN[C@@](C)(CO)C(=O)O)cc5Cl)c4C)c3C)cc2CN1 (stereo partly shown) [Compound 26] and report it.
Result string: 48.9

Query string: Find the recorded AC50 belonging to COc1nc(-c2cccc(-c3cccc(-c4cc5c(cn4)CNC5)c3Cl)c2Cl)ccc1CNC[C@@H]1CCC(=O)N1 [Compound 23] and report it.
Result string: 272

Query string: Find the recorded AC50 belonging to C[C@](CO)(NCc1cc(Br)c(OCc2cccc(-c3cccc(-c4ccc5c(c4)CNCC5)c3Cl)c2Cl)nc1OCc1cncc(C#N)c1)C(=O)O [Compound 21] and report it.
Result string: 28.3

Query string: Find the recorded AC50 belonging to Cc1c(COc2cc(OCc3cncc(C#N)c3)c(CN[C@@](C)(CO)C(=O)O)cc2Cl)cccc1-c1cccc(-c2ccc3c(c2)CNCC3O)c1C (stereo partly shown) [Compound 3] and report it.
Result string: 76.9

Query string: Find the recorded AC50 belonging to Cc1c(COc2cc(OCc3cncc(C#N)c3)c(CN[C@@](C)(CO)C(=O)O)cc2Cl)cccc1-c1cccc(-c2ccc3c(c2)CNCC3NC(=O)NC2CC2)c1C (stereo partly shown) [Compound 14] and report it.
Result string: 10.7

Query string: Find the recorded AC50 belonging to COc1nc(-c2cccc(-c3cccc(-c4cc5c(s4)CCNC5)c3Cl)c2Cl)ccc1CNC[C@@H]1CCC(=O)N1 [Compound 33] and report it.
Result string: 145
